# tested.system: BSA (Bos taurus)
# Construct: purchased HiMedia (Mumbai, India)
# Sequence (P02769 25-607): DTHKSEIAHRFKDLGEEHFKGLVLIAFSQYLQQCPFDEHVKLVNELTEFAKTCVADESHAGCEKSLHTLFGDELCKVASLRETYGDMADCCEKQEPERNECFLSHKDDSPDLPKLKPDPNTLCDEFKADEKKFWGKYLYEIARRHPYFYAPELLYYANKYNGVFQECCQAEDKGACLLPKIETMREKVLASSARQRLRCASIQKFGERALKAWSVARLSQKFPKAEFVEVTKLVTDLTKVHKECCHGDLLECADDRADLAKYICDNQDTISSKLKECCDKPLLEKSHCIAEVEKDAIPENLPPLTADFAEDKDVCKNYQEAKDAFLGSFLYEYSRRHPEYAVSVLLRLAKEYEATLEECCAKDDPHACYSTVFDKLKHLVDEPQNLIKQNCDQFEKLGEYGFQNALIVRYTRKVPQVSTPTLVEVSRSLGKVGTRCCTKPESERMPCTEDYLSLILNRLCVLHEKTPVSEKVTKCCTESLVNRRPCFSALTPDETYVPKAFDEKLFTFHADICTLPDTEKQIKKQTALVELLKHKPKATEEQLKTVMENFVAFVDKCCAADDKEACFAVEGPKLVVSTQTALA
# assay.method.text: BSA tryptophan fluorescence quenching
# Type: binding, bovine
# condition.parameters: BSA, Scatchard equation
# Description: The obtained results confirmed the interaction of the ligands and complexes with serum albumins. The absorption spectra of the serum albumins in the absence and presence of ligands H2L^1–4 and the complexes 1–4 are given in Fig. S29 in the ESI. ^† On adding ligands and complexes 1–4 to albumins, the absorbance intensity of serum albumins was decreased with a red shift of 2 nm. […] Furthermore, the equilibrium binding constant and number of binding sites were evaluated by using the Scatchard equation. […]
Hi there, I'd appreciate the recorded Binding constant Kbin for every entry that follows.

Find the measured Binding constant Kbin of CCNC1=N[N+]2=C(C)c3[c](c4ccc(OC)cc4oc3=O)[Ru-4]2([C]#[O+])([P+](c2ccccc2)(c2ccccc2)c2ccccc2)([P+](c2ccccc2)(c2ccccc2)c2ccccc2)[S]1 [Complex 3, [Ru(7MAC-etsc)(CO)(PPh3)2]] and report it.
17.49 ± 0.030 × 10^4 M^−1

Return reported Binding constant Kbin. Input compound: CNC1=N[N+]2=C(C)c3[c](c4ccc(OC)cc4oc3=O)[Ru-4]2([C]#[O+])([P+](c2ccccc2)(c2ccccc2)c2ccccc2)([P+](c2ccccc2)(c2ccccc2)c2ccccc2)[S]1 [Complex 2, [Ru(7MAC-mtsc)(CO)(PPh3)2]]
3.323 ± 0.027 × 10^4 M^−1

Name the recorded Binding constant Kbin of the compound listed here: COc1ccc2[c]3c(c(=O)oc2c1)C(C)=[N+]1N=C(N)[S][Ru-4]31([C]#[O+])([P+](c1ccccc1)(c1ccccc1)c1ccccc1)[P+](c1ccccc1)(c1ccccc1)c1ccccc1 [Complex 1, [Ru(7MAC-tsc)(CO)(PPh3)2]]
2.251 ± 0.029 × 10^4 M^−1

Name the recorded Binding constant Kbin of the compound listed here: COc1ccc2[c]3c(c(=O)oc2c1)C(C)=[N+]1N=C(Nc2ccccc2)[S][Ru-4]31([C]#[O+])([P+](c1ccccc1)(c1ccccc1)c1ccccc1)[P+](c1ccccc1)(c1ccccc1)c1ccccc1 [Complex 4, [Ru(7MAC-ptsc)(CO)(PPh3)2]]
2.178 ± 0.019 × 10^4 M^−1
